# assay_target: T1, human CD8 alpha (CD8A) on primary human CD8+ T cells (human, UniProt P01732 22-235)
# T1 construct: whole, on cells; also called hCD8A
# T1 sequence (P01732 22-235): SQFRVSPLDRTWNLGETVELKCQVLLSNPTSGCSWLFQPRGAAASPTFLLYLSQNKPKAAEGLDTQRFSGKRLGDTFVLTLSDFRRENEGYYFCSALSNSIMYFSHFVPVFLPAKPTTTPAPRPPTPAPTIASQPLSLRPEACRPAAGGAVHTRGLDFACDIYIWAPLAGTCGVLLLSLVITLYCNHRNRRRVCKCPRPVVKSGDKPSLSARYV
# assay_text: flow cytometry, human CD8+ T cells
Listed next: entries and their corresponding Human T-cell Binding 2 uM (MFI).
Numeric answer only, unit MFI assumed.

response.value for P283BR9P1363_E6 (designed binder, FN3 domain) LPAPKNLVVSRVTEDSARLSWYARKFISPFDSFLIQYQESEKVGEAIVLTVPGSERSYDLTGLKPGTEYTVSIYGVDVKWEGNRPVASNPLSAIFTT (field: Human T-cell Binding 2 uM (MFI)) = 8240

---
response.value for P283DR9P1364_D9 (designed binder, FN3 domain) LPAPKNLVVSRVTEDSARLSWTAPDAAFDSFGISYPEWPPLGEAIVLTVPGSERSYDLTGLKPGTEYWVIIFGVKGGERSWPLSAIFTT (field: Human T-cell Binding 2 uM (MFI)) = 42300

response.value for P283GR7P1367_H8 (designed binder, FN3 domain) LPAPKNLVVSRVTEDSARLSWTAPDAAFDSFSINYWEEDPAGEAIVLTVPGSERSYDLTGLKPGTEYRVLIGGVKGGHGSLPLSAIFTT (field: Human T-cell Binding 2 uM (MFI)) = 5270

response.value for P283ER9P1365_G3 (designed binder, FN3 domain) LPAPKNLVVSRVTEDSARLSWTAPDAAFDSFGISYYEWAPNGEAIQLSVPGSERSYDLTGLKPGTEYHVVIIGVKGGEPSHPLGAIFTT (field: Human T-cell Binding 2 uM (MFI)) = 12500

response.value for P283FR9P1366_D12 (designed binder, FN3 domain) LPAPKNLVVSRVTEDSARLSWTAPDAAFDSFDIAYPEWPLGGEAIVLTVPGSERSYDLTGLKPGTEYWVIILGVKGGDQSWPLSAIFTT (field: Human T-cell Binding 2 uM (MFI)) = 27800

response.value for P283FR9P1366_D6 (designed binder, FN3 domain) LPAPKNLVVSRVTEDSARLSWTAPDAAFDSFNIFYPELVFPGEAIVLTVPGSERSYDLTGLKPGTEYWVNISGVKGGEHSWPLSAIFTT (field: Human T-cell Binding 2 uM (MFI)) = 32900
